Cited source for all entries: patent US8163779B2

Biological target: glucokinase (GK) (Homo sapiens)
Construct: I.D. No. 1 corresponds to residues 12-465 of glucokinase
Sequence (P35557 with tags, fused parts or gaps isoform P35557-2): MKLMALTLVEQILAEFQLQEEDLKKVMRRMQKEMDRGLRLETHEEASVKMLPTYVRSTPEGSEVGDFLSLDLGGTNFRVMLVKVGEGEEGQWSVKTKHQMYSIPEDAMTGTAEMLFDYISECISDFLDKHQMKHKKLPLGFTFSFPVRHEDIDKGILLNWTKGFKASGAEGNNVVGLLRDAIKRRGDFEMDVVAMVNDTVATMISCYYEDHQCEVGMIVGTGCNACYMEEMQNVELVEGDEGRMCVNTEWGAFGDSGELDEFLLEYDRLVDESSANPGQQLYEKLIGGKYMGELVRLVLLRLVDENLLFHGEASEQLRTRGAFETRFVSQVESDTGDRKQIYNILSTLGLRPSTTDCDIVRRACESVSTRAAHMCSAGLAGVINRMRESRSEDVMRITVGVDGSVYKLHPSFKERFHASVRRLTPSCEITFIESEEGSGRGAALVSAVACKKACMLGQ
Experiment: enzymatic glucokinase activity assay (ATP consumption, KinaseGlo luminescence)
Conditions: recombinant GK residues 12-465; 5 μM ATP, 5 mM Glucose; Kact = concentration that displays 50% of the maximal increase in GK activity; read-out: pKact
In this section we review reported EC50 values for a set of compounds.

// worked examples, EC50 included
compound | EC50
O=C(Nc1ncc(Cl)s1)C(CC1CCCCC1)n1ccc(C(=O)N2CCCC2)cc1=O (stereo not shown) | 1.58 to 15.8 µM
Cc1cc(S(=O)(=O)Cc2cccs2)cc(=O)n1[C@@H](CC1CCCCC1)C(=O)Nc1ncc(Cl)s1 | < 1.58 µM

Form field: EC50 recorded for `Cc1cc(S(=O)(=O)C2CCCC2)cc(=O)n1[C@H](CC1CCOCC1)C(=O)Nc1ccc(C(N)=O)cn1` with glucokinase (GK) (Homo sapiens) (enter value)
> 15.8 µM

Recall the recorded EC50 for `Cc1cc(S(=O)(=O)c2cccc(F)c2)cc(=O)n1[C@H](CC1CCOCC1)C(=O)Nc1ncc(F)s1` with glucokinase (GK) (Homo sapiens) and state it.
> 15.8 µM

----------
target: glucokinase (GK) (Homo sapiens, UniProt P35557); construct: I.D. No. 1 corresponds to residues 12-465 of glucokinase; assay: enzymatic glucokinase activity assay (ATP consumption, KinaseGlo luminescence); settings: recombinant GK residues 12-465; 5 μM ATP, 5 mM Glucose; Kact = concentration that displays 50% of the maximal increase in GK activity; read-out: pKact
pEC50: −log10 of the molar value. Counter-ions that a name gives are not always drawn.
assay.endpoint: pEC50

compound | target.entity | pEC50
O=C(Nc1nc2cccnc2s1)[C@@H](CC1CCOCC1)n1ccc(S(=O)(=O)C2CC2)cc1=O [Example 51] | glucokinase (GK) (Homo sapiens, UniProt P35557) | < 4.80
Cc1c(S(=O)(=O)C2CCCC2)c(C)c(=O)n([C@H](CC2CCOCC2)C(=O)Nc2ncc(Cl)s2)c1C [Example 136] | glucokinase (GK) (Homo sapiens, UniProt P35557) | 4.80 to 5.80

Param readout = pEC50; param system = glucokinase (GK) (Homo sapiens, UniProt P35557); param query = Cc1cc(S(=O)(=O)C2CC2)cc(=O)n1[C@@H](CC1CCCC1)C(=O)Nc1cnccn1 [Example 171] ; response: value
4.80 to 5.80

What reported pEC50 corresponds to Cc1cc(S(=O)(=O)c2cccc(Cl)c2)cc(=O)n1[C@@H](CC1CCOCC1)C(=O)Nc1ncc(F)s1 [Example 168] on glucokinase (GK) (Homo sapiens, UniProt P35557)?
> 5.80

Please state recorded pEC50 (tested on glucokinase (GK) (Homo sapiens, UniProt P35557)) of Cc1cc(S(=O)(=O)C2CCCC2)cc(=O)n1[C@@H](CC1CCOCC1)C(=O)Nc1ncc(F)s1 [Example 40]
> 5.80

Missing value: pEC50, glucokinase (GK) (Homo sapiens, UniProt P35557), entry Cc1cc(O)cc(=O)n1C(CC1CCCCC1)C(=O)Nc1nccs1 (stereo not shown) [Example 1, trifluoroacetic acid salt] . Fill in?
< 4.80

Could you share what pEC50 was measured for Cc1cc(S(=O)(=O)C2CCCC2)cc(=O)n1C(CC1CCCCC1)C(=O)Nc1ccc(C(N)=O)cn1 (stereo not shown) [Example 6, trifluoroacetic acid salt] , tested on glucokinase (GK) (Homo sapiens, UniProt P35557)?
> 5.80

----------
molecular target: glucokinase (GK) (Homo sapiens, UniProt P35557); construct: I.D. No. 1 corresponds to residues 12-465 of glucokinase; made in house; host or cells: E. coli DH10b-T1r; experiment: enzymatic glucokinase activity assay (ATP consumption, KinaseGlo luminescence); format: biochemical; conditions: recombinant GK residues 12-465; 5 μM ATP, 5 mM Glucose; Kact = concentration that displays 50% of the maximal increase in GK activity; read-out: pKact
Counter-ions that a name gives are not always drawn.
assay.endpoint: EC50

Solved entries (count: 3):
compound | EC50
COc1ccc2nc(NC(=O)C(CC3CCOCC3)n3ccc(S(=O)(=O)CCCO)cc3=O)sc2n1 (centres unmarked) [Example 67] | > 15800 nM
Cc1cc(-c2cn[nH]c2)cc(=O)n1[C@@H](CC1CCCCC1)C(=O)Nc1nccs1 [Example 113] | > 15800 nM
Cc1c(S(=O)(=O)C2CCCC2)cc(=O)n([C@H](CC2CCOCC2)C(=O)Nc2ncc(F)s2)c1C [Example 153] | < 1580 nM

Record request: EC50 value, item Cc1occc1S(=O)(=O)c1cc(C)n(C(CC2CCCCC2)C(=O)Nc2ncc(Cl)s2)c(=O)c1 (centres unmarked) [Example 54]
< 1580 nM

Param item = Cc1c(S(=O)(=O)C2CCCC2)cc(=O)n([C@@H](CC2CCOCC2)C(=O)Nc2ncc(F)s2)c1C [Example 151] ; retrieve measured EC50.
< 1580 nM

Entry under review: Cc1cc(S(=O)(=O)C2CCCC2)cc(=O)n1C(CC1CCCCC1)C(=O)Nc1nccs1 (centres unmarked) [Example 5, trifluoroacetic acid salt] . Reported EC50?
< 1580 nM

// returns reported EC50 for input Cc1cc(-c2ccc(Cl)cc2)cc(=O)n1[C@@H](CC1CCCCC1)C(=O)Nc1nccs1 [Example 93]
> 15800 nM

Any idea what EC50 was measured for COC(C)(C)c1cnc(NC(=O)[C@H](CC2CCOCC2)n2ccc(S(=O)(=O)C3CC3)cc2=O)s1 [Example 133] ?
1580 to 15800 nM

----------
Target: glucokinase (GK) (Homo sapiens, UniProt P35557)
Construct: I.D. No. 1 corresponds to residues 12-465 of glucokinase
Sequence (P35557 with tags, fused parts or gaps isoform P35557-2): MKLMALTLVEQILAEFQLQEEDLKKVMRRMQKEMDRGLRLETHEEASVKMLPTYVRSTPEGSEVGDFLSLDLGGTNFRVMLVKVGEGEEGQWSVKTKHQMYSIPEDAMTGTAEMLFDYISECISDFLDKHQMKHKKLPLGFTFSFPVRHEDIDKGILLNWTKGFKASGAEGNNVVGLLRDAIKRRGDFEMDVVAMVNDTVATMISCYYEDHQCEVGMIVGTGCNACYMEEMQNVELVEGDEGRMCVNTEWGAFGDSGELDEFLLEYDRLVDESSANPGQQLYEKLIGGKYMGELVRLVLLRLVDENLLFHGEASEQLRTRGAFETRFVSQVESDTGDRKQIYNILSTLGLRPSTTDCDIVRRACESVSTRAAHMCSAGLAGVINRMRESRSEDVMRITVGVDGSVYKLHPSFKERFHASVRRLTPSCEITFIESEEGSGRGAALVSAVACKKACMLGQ
Experiment: enzymatic glucokinase activity assay (ATP consumption, KinaseGlo luminescence)
Settings: recombinant GK residues 12-465; 5 μM ATP, 5 mM Glucose; Kact = concentration that displays 50% of the maximal increase in GK activity; read-out: pKact
pEC50: −log10 of the molar value.
Below, each of the compounds is paired with its reported pEC50 value.

compound | assay.endpoint | endpoint.value
O=C(Nc1ncc(Cl)s1)[C@H](CC1CCOCC1)n1ccc(S(=O)(=O)C2CC2)cc1=O | pEC50 | > 5.80
Cc1cc(S(=O)(=O)c2cccs2)cc(=O)n1C(CC1CCCCC1)C(=O)Nc1ncc(Cl)s1 (centres unmarked) | pEC50 | > 5.80
Cc1cc(S(=O)(=O)C2CCCC2)cc(=O)n1C(Cc1ccc(O)cc1)C(=O)Nc1nccs1 (centres unmarked) | pEC50 | < 4.80

Give glucokinase (GK) (Homo sapiens, UniProt P35557) pEC50 for Cc1cc(S(=O)(=O)Cc2cccs2)cc(=O)n1C(CC1CCCCC1)C(=O)Nc1ncc(Cl)s1 (centres unmarked)
4.80 to 5.80

pEC50 of `COc1ccc2nc(NC(=O)[C@H](CC3CCCCC3)n3ccc(S(=O)(=O)C4CC4)cc3=O)sc2n1` on glucokinase (GK) (Homo sapiens, UniProt P35557)?
> 5.80

# value lookup — system glucokinase (GK) (Homo sapiens, UniProt P35557), readout pEC50, item `NC(=O)c1ccc(NC(=O)[C@H](CC2CCOCC2)n2ccc(S(=O)(=O)C3CCCC3)cc2=O)nc1`
> 5.80
